Test System: Progesterone receptor (Homo sapiens, UniProt P06401)
Sequence (P06401 whole entry): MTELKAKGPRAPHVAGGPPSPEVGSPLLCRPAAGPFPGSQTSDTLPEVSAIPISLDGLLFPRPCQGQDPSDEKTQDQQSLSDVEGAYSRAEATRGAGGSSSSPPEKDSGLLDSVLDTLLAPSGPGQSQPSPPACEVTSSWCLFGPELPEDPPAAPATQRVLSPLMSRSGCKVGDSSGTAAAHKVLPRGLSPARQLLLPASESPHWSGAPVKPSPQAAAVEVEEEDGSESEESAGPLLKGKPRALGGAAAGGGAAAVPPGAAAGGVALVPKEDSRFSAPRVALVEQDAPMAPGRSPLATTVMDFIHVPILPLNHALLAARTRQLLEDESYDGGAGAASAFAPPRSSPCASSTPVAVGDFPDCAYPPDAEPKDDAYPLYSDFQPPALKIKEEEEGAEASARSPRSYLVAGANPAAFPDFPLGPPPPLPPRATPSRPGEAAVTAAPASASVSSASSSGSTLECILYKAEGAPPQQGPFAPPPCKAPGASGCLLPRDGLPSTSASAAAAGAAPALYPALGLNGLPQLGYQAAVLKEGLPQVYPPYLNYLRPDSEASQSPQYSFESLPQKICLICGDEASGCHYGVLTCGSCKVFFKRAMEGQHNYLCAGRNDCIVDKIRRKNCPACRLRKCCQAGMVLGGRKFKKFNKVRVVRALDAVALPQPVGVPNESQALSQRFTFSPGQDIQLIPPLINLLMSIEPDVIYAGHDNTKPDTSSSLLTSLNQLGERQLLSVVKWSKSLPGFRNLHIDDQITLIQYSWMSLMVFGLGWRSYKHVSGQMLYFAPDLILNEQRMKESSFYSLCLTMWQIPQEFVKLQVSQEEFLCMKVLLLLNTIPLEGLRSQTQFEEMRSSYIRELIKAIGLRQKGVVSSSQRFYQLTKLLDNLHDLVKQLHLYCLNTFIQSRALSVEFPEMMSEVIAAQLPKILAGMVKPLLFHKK
Test Details: Displacement of TAMRA labeled mifepristone at human progesterone receptor in insect cell
pIC50: −log10 of the molar value.
Value Type: pIC50

Example molecules with recorded pIC50:
COc1ccc(F)cc1C(C)(C)CC(O)(Cc1cccc2ccccc12)C(F)(F)F (centres undefined); < 5.70
COc1ccc(F)cc1C(C)(C)CC(O)(Cc1cccc(C)c1)C(F)(F)F (centres undefined); < 5.98

Go through the items and report each one's pIC50.
1. COc1ccc(F)cc1C(C)(C)CC(O)(Cc1ccc(C#N)cc1)C(F)(F)F (centres undefined)
2. COc1ccc(F)cc1C(C)(C)CC(O)(c1ccccc1)C(F)(F)F (centres undefined)

Result:
1: 6.46; 2: < 5.80
